biological target: muscarinic cholinergic receptor; assay: [^3 H]-Cis-methyldioxolane (^3 H-CD) Binding Assay (High Affinity); settings: rat cerebral cortex, ^3 H-CD 1.0 nM, 25° C., 120 minutes, pH 7.4; high affinity agonist binding
Structures can show the parent of a compound that is named as a salt.
Below, each of the compounds is paired with its reported Ki value.

[
  {
    "compound": "CN(C)CC#CCN1CCC(C)(O)C1=O (racemic) [Racemic-1-[4-Dimethylamino)-2-butynyl]-3-hydroxy-3-methyl-2-pyrrolidinone]",
    "limit_operator": ">",
    "Ki, nM": 100000
  },
  {
    "compound": "CC(C)(C)[Si](C)(C)O[C@@H]1CCN(CC#CCn2ccnc2)C1=O",
    "limit_operator": "=",
    "Ki, nM": 14000
  },
  {
    "compound": "CCCCCCCCNC(=O)O[C@@H]1CCN(CC#CC[N+](C)(C)C)C1=O",
    "limit_operator": "=",
    "Ki, nM": 490
  },
  {
    "compound": "CN(CC#CCN1CC[C@@H](O)C1=O)CCCCO",
    "limit_operator": "=",
    "Ki, nM": 1450
  },
  {
    "compound": "CC1CCN(CC#CCN(C)C)C1=O (racemic) [Racemic 1-[4-(1-Dimethylamino)-2-butynyl]-3-methyl-2-pyrrolidinone]",
    "limit_operator": "=",
    "Ki, nM": 410
  },
  {
    "compound": "CS[C@@H]1CCN(CC#CCN(C)C)C1=O",
    "limit_operator": "=",
    "Ki, nM": 6100
  },
  {
    "compound": "CNC(=O)O[C@H]1CCN(CC#CCN2CCCC2)C1=O",
    "limit_operator": ">",
    "Ki, nM": 100000
  },
  {
    "compound": "CN(C)CC#CCNC(=O)C(F)(F)F",
    "limit_operator": "=",
    "Ki, nM": 6100
  },
  {
    "compound": "N[C@@H]1CCN(CC#CCN2CCCC2)C1=O [dihydrochloride]",
    "limit_operator": "=",
    "Ki, nM": 350
  },
  {
    "compound": "CC1(O)CCN(CC#CCN2CCCC2)C1=O (racemic) [Racemic-3-Hydroxy-3-methyl-1-[4-(1-pyrrolidinyl)-2-butynyl]-2-pyrrolidinone]",
    "limit_operator": "=",
    "Ki, nM": 5700
  },
  {
    "compound": "CCCCCCCCCC(=O)O[C@@H]1CCN(CC#CCN(C)C)C1=O",
    "limit_operator": "=",
    "Ki, nM": 730
  },
  {
    "compound": "CCN(CC)CC#CCN [dihydrochloride]",
    "limit_operator": ">",
    "Ki, nM": 100000
  },
  {
    "compound": "CN(C)CC#CCN1CC[C@H](O)C1=O",
    "limit_operator": "=",
    "Ki, nM": 43
  },
  {
    "compound": "CN(C)CC#CCN1CC[C@H](O[Si](C)(C)C(C)(C)C)C1=O",
    "limit_operator": "=",
    "Ki, nM": 18200
  },
  {
    "compound": "O=C1[C@@H](O)CCN1CC#CCN1CCCC1",
    "limit_operator": "=",
    "Ki, nM": 7
  },
  {
    "compound": "CCCCCCCCNC(=O)O[C@@H]1CCN(CC#CCN(C)C)C1=O",
    "limit_operator": "=",
    "Ki, nM": 1430
  },
  {
    "compound": "CC(=O)O[C@@H]1CCN(CC#CCN2CCC[C@H]2CO[Si](C)(C)C(C)(C)C)C1=O",
    "limit_operator": "=",
    "Ki, nM": 1700
  },
  {
    "compound": "CC(C)(C)C(=O)O[C@@H]1CCN(CC#CC[N+](C)(C)C)C1=O",
    "limit_operator": "=",
    "Ki, nM": 1220
  },
  {
    "compound": "C[C@@H]1CCN(CC#CCN(C)C)C1=O",
    "limit_operator": "=",
    "Ki, nM": 73
  },
  {
    "compound": "C[N+](C)(C)CC#CCN1CC[C@@H](N=[N+]=[N-])C1=O",
    "limit_operator": "=",
    "Ki, nM": 39
  },
  {
    "compound": "CC(C)C(=O)O[C@@H]1CCN(CC#CCN(C)C)C1=O",
    "limit_operator": "=",
    "Ki, nM": 26000
  },
  {
    "compound": "CS[C@H]1CCN(CC#CCN2CCCC2)C1=O",
    "limit_operator": "=",
    "Ki, nM": 1040
  },
  {
    "compound": "CC1CCN(CC#CCN2CCC(O[Si](C)(C)C(C)(C)C)C2)C1=O (stereo not shown)",
    "limit_operator": ">",
    "Ki, nM": 100000
  },
  {
    "compound": "O=C1[C@H](O)CCN1CC#CCN1CCCC1",
    "limit_operator": "=",
    "Ki, nM": 125
  },
  {
    "compound": "CC(C)C(=O)O[C@H]1CCN(CC#CC[N+](C)(C)C)C1=O",
    "limit_operator": "=",
    "Ki, nM": 6960
  },
  {
    "compound": "CCCCCCCCOC(=O)O[C@@H]1CCN(CC#CC[N+](C)(C)C)C1=O",
    "limit_operator": "=",
    "Ki, nM": 10
  },
  {
    "compound": "CC(C)(C)C(=O)O[C@H]1CCN(CC#CC[N+](C)(C)C)C1=O",
    "limit_operator": "=",
    "Ki, nM": 7800
  },
  {
    "compound": "CN(C)CC#CCN [dihydrochloride]",
    "limit_operator": "=",
    "Ki, nM": 20500
  },
  {
    "compound": "CN(C)CC#CCN1CC[C@H](N=[N+]=[N-])C1=O",
    "limit_operator": "=",
    "Ki, nM": 630
  },
  {
    "compound": "CS[C@H]1CCN(CC#CCN(C)C)C1=O",
    "limit_operator": "=",
    "Ki, nM": 6400
  },
  {
    "compound": "CCN(CC)CC#CCNC(=O)C(F)(F)F [monohydrochloride]",
    "limit_operator": "=",
    "Ki, nM": 4070
  }
]
